The reported numbers originate from PubChem BioAssay (NCI).

Tested on: SK-MEL-5 melanoma
Experiment: NCI tumour cell line growth inhibition, 48 h
In this section we review reported TGI values for a set of compounds.

{"COMPOUND": "C#C[C@]1(O)CC[C@H]2[C@@H]3CC=C4c5sc(N=C(N)N)nc5CC[C@]4(C)[C@H]3CC[C@@]21C", "TGI": "1.66 µM"}
{"COMPOUND": "CCc1c2c(nc3cc4c(cc13)OCO4)-c1cc3c(c(=O)n1C2)COC(=O)[C@@]3(CC)OC(=O)CN", "TGI": "0.037 µM"}
{"COMPOUND": "CN1CCC2(CC1)C(=O)N(N1CCCCCC1)C(=O)N2c1ccccc1", "TGI": "> 100 µM"}
{"COMPOUND": "O=C(NO)c1coc2ccccc2c1=O", "TGI": "> 100 µM"}
{"COMPOUND": "Cc1cc2[nH]c3c(C#N)c(-c4ccccc4)c(N=Nc4cccc(C(F)(F)F)c4)c(=O)n3c2cc1C", "TGI": "51.8 µM"}
{"COMPOUND": "CCCCC(=O)N/N=C/c1cc(I)cc(I)c1O", "TGI": "15.3 µM"}
{"COMPOUND": "Brc1ccc([I+]c2ccc(Br)cc2)cc1", "TGI": "1.83 µM"}
{"COMPOUND": "COC(=O)C1=Nc2c(C)nn(-c3ccccc3)c2N=C(c2ccc(C)cc2)C1", "TGI": "> 10 µM"}
{"COMPOUND": "CC(C)(C)c1ccc(CN2CCN(C(c3ccccc3)c3ccc(Cl)cc3)CC2)cc1 (stereo unspecified)", "TGI": "73.1 µM"}
{"COMPOUND": "[Cu+2].[O-]c1ccc2ccccc2c1N=Nc1ccccc1.[O-]c1ccc2ccccc2c1N=Nc1ccccc1", "TGI": "> 100 µM"}
{"COMPOUND": "CC1(C)N=C(N)N=C(N)N1c1ccc(F)c(C(F)(F)F)c1", "TGI": "> 100 µM"}
{"COMPOUND": "CN1C(c2ccccc2)=CC(=O)C(O)=C(c2ccccc2)S1(=O)=O", "TGI": "> 100 µM"}
{"COMPOUND": "CCOC(=O)/N=C(\\N)SCc1ccccc1", "TGI": "> 100 µM"}
{"COMPOUND": "CC(=O)/C=C/C1=C(c2cc3ccccc3s2)c2ccccc2CC1", "TGI": "35.3 µM"}
{"COMPOUND": "C/C(=N\\Nc1ccc([N+](=O)[O-])cc1[N+](=O)[O-])c1ccc2ccccc2n1", "TGI": "> 100 µM"}
{"COMPOUND": "CC(c1ccc(Br)cc1)C(C(=O)O)C(=O)O (stereo unspecified)", "TGI": "> 100 µM"}
{"COMPOUND": "NC(=O)CCC(NCc1c2ccccc2[n+]([O-])c2ccccc12)C(=O)O (stereo unspecified)", "TGI": "> 100 µM"}
{"COMPOUND": "CCOC(=O)CC1(O)C=CC(=O)C=C1", "TGI": "3.86 µg/mL"}
{"COMPOUND": "Cc1ccccc1C(=O)Oc1ccc(Oc2ccccc2)cc1", "TGI": "> 100 µM"}
{"COMPOUND": "COP(C)(=O)/C(Cc1ccccc1)=N\\O (stereo unspecified)", "TGI": "> 100 µM"}
{"COMPOUND": "CC(=O)OC1COC(S[As](C)C)C(OC(C)=O)C1OC(C)=O (stereo unspecified)", "TGI": "0.253 µM"}
